Listing of entries alongside the reported growth.
Tested on: NCI-H522 lung
procedure-details: NCI-60 one-dose screen, 48 h (100 = growth as untreated, 0 = no growth, -100 = all killed)
particulars: 10 µM unless noted
This is part of a sample that, as a whole, favours compounds with a hit. Of some 83,000 tested, about 20% had one in any assay.
quantity-kind: growth (%)

1) CCN(CC)c1ccc2cc(C(Nc3ccc(Cl)cc3)c3nnnn3C(C)(C)C)c(=O)oc2c1 (stereo unspecified) :: 79.5
2) ClC1=C(Cl)C(Cl)=C(Cl)C1=Cc1ccccc1 :: -51.1
3) CCCCOC(=O)c1c(C)[nH]c(/C=C2\N=C(c3ccc[nH]3)C=C2OC)c1C :: -41.3
4) COc1ccc(-c2cc(-c3ccc(Cl)cc3)nc(SCCCCCCC(=O)NO)n2)cc1 :: 10.4
5) CCOC(=O)n1cc(C2=C(c3ccc(OC)c(OC)c3)COC2=O)c2ccccc21 :: -23.6
6) O=C(Nc1cccc(F)c1)c1cc(=O)[nH]c2cc(Br)ccc12 :: 23.9
